System: Wolbachia pipientis
Experiment: Anti-Wolbachia Cell-Based Screen
Assay type: functional
Set-up: scale not given: in the data most compounds retested in dose-response had high values
Settings: 5 µM
Among all 48,000 compounds or so, about 13,000 (27%) showed an effect of 50% or more. The list shows a part of the results.
ENDPOINT: Percent Effect (%)
Give the value, in units of %, as a plain number.

Input CC(C)N1CCCC2(CCN(c3nccc(C(F)(F)F)n3)C2)C1=O (stereo unspecified) . Output Percent Effect: -9.493

---

System: Wolbachia pipientis
Experiment: Anti-Wolbachia Cell-Based Screen
Format: functional
Set-up: scale not given: in the data most compounds retested in dose-response had high values
Details: 5 µM
Screen size: about 48,000 compounds; about 13,000 (27%) showed an effect of 50% or more. The list shows a part of the results.
Entries whose Percent Effect is below 90% take rule met; entries at or above 90% take rule not met.

# COMPOUND, LABEL_CLASS
rows = [
    ("Cc1csc2c(=O)n(CCSc3cnn[nH]3)cnc12", "rule not met"),
]

// query Lab note: confirm whether the reported Percent Effect for this compound is below 90%, equality not counting. compound: `Cc1cc2c(=O)n(CCSc3ncn[nH]3)cnc2s1`
// result rule not met

// query Lab note: confirm whether the reported Percent Effect for this compound is below 90%, equality not counting. compound: `CCOCCC(=O)NC1(c2cccc(Br)c2)CC1`
// result rule met

// query Lab note: confirm whether the reported Percent Effect for this compound is below 90%, equality not counting. compound: COCCn1cc(C(=O)N2CCCC2c2cccs2)c2ccccc21 (stereo unspecified)
// result rule met

// query Lab note: confirm whether the reported Percent Effect for this compound is below 90%, equality not counting. compound: `COc1ccc(-c2cn(CCSc3ncn[nH]3)nn2)cn1`
// result rule met
